Each entry below carries its reported inhibition at 5 µM.
Target: DUB activity in cells (NCI-H929, Z138, MM.1S, A375) (Homo sapiens)
Construct: endogenous in cells; host or cells: NCI-H929, Z138, MM.1S, A375
Sequence (Q93008 whole entry): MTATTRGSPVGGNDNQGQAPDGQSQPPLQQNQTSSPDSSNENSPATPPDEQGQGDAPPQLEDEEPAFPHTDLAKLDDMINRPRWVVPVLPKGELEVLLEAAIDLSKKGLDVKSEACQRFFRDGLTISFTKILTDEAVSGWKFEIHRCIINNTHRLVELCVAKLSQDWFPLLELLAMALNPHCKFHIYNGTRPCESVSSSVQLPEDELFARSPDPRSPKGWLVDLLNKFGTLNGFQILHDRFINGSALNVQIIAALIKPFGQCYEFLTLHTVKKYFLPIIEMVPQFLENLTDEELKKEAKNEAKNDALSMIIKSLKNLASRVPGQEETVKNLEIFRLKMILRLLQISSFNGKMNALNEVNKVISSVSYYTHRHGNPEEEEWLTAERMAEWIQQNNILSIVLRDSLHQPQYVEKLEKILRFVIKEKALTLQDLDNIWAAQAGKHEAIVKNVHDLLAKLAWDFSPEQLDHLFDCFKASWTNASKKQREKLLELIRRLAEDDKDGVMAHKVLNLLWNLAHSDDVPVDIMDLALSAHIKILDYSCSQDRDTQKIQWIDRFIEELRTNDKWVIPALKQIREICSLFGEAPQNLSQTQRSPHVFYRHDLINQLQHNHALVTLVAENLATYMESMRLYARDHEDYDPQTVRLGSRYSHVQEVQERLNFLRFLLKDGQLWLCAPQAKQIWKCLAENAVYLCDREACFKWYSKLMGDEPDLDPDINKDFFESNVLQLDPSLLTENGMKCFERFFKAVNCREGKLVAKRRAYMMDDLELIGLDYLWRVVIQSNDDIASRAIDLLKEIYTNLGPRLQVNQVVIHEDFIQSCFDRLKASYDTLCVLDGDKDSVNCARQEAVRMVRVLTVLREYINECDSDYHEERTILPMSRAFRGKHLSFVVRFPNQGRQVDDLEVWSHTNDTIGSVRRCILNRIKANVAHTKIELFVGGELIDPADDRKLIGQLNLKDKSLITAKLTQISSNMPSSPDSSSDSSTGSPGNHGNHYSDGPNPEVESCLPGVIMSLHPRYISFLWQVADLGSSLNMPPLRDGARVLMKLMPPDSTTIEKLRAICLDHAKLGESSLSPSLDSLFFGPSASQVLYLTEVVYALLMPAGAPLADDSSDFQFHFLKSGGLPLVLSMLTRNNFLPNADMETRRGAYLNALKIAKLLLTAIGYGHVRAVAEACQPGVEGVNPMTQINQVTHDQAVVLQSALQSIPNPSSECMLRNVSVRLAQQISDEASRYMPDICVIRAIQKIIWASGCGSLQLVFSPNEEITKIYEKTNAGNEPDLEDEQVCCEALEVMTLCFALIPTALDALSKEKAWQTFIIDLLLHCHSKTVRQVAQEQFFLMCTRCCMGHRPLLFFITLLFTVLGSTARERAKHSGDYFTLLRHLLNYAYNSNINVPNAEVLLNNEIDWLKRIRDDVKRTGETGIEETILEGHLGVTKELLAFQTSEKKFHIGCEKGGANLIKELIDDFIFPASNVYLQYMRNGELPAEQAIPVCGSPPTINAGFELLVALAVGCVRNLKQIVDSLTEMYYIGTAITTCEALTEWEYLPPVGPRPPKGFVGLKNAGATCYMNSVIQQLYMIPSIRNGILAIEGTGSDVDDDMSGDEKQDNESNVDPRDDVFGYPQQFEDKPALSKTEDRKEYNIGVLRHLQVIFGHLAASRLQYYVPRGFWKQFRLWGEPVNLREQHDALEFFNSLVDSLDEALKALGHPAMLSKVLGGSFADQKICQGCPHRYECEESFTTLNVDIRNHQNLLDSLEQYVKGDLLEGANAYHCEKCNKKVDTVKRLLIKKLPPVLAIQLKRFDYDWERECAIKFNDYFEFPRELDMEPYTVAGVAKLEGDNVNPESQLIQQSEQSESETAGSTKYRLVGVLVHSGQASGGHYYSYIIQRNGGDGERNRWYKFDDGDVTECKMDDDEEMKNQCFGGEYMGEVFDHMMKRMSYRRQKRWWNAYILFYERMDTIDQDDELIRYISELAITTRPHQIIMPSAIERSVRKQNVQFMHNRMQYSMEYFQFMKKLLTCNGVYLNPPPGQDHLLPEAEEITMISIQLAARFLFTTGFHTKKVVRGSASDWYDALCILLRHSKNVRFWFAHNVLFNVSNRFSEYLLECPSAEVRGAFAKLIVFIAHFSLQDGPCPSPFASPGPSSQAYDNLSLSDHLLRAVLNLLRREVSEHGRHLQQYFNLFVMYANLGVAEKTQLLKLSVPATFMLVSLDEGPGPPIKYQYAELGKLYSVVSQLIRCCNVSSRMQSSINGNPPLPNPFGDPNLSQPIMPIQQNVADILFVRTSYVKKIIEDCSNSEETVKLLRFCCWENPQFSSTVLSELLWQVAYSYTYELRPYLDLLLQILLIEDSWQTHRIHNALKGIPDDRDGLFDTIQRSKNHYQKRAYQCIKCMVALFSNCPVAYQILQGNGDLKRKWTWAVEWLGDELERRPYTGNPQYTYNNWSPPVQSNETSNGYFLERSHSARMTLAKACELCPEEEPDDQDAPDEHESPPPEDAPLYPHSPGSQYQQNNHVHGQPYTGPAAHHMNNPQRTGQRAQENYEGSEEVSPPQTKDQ
Assay: HA-Ubiquitin-Vinylsulfone (HA-Ub-VS) cell labeling assay
Format: cell-based
Conditions: compound tested at 5 μM; HA-Ub-VS labeling of USP9x in cells

Some molecules with known inhibition at 5 µM results, for comparison:
// query Fill in reported inhibition at 5 µM for this entry: N#C/C(=C\c1ncc(Br)cc1Br)C(=O)NC1(c2ccc(-c3ccc(C(F)(F)F)nc3)cc2)CCCC1 [Compound 68]
// result ≥ 75%

// query Fill in reported inhibition at 5 µM for this entry: CC(C)(C)OC(=O)c1cccc(C2(NC(=O)/C(C#N)=C/c3ncc(Br)cc3Br)CCCC2)c1 [Compound 52]
// result < 25%

// query Fill in reported inhibition at 5 µM for this entry: CCOc1ncc(C(F)(F)F)cc1-c1cccc(/C=C(\C#N)C(=O)NC2(c3ccccc3)CCCC2)n1 [Compound 47]
// result 25 to 50%

// query Fill in reported inhibition at 5 µM for this entry: CC(=O)OCc1ccc(C2(NC(=O)/C(C#N)=C/c3cccc(Br)n3)CCCC2)cc1 [Compound 87]
// result 25 to 50%

// query Fill in reported inhibition at 5 µM for this entry: N#C/C(=C\c1cccc(Br)n1)C(=O)NC1(c2ccnc(F)c2)CCCC1 [Compound 3-7]
// result 25 to 50%

// query Fill in reported inhibition at 5 µM for this entry: N#C/C(=C\c1ncc(Br)cc1Br)C(=O)NC1(c2ccc(-c3cnc4[nH]ccc4c3)cc2)CCCC1 [Compound 59]
// result ≥ 75%

From here, focus on the item given below.
// query Fill in reported inhibition at 5 µM for this entry: N#C/C(=C\c1cccc(-c2ccc(C(F)(F)F)nc2)n1)C(=O)NC1(c2ccccc2)CCCC1 [Compound 64]
// result 50 to 75%
